- Read-out: Macrophage Inflammatory Protein-1 Alpha (MIP1a), CCL3 (gene 6348)
- test protocol: BSK_IMphg_MIP1a: BioMAP Diversity Plus: IMphg Assay for Macrophage Inflammatory Protein-1 Alpha (MIP1a) Biomarker Activity (AID 2284255)
- measurement context: primary human endothelial cells with macrophages
Active and inactive are the calls of the source. The calls were made as follows: active = hit-call score of the fitted dose curve at least 0.9, where 1 is the maximum; inactive = score below 0.9.
measured parameter: outcome

compound: OC(O)C(F)(F)C(F)(F)F
measured parameter: outcome
readout value: inactive

compound: NCC(F)(F)C(F)(F)C(F)(F)C(F)(F)C(F)(F)C(F)(F)F
measured parameter: outcome
readout value: inactive

compound: OCC(O)CC(F)(F)C(F)(F)C(F)(F)C(F)(F)C(F)(F)C(F)(F)C(F)(F)C(F)(F)F (configuration not stated)
measured parameter: outcome
readout value: inactive

compound: FC(F)(F)C(F)(F)C(F)(F)CC1CO1 (configuration not stated)
measured parameter: outcome
readout value: inactive

compound: FC(F)(F)C(F)(F)C(F)(F)C(F)(F)C(F)(F)C(F)(F)CC[Si](Cl)(Cl)Cl
measured parameter: outcome
readout value: inactive

Exercise: Param item = "OCC(F)(F)C(F)(F)C(F)(F)C(F)(F)C(F)(F)C(F)(F)CO" ; retrieve measured outcome.
Solution: inactive

Exercise: Param item = "CCOC(=O)CC(=O)C(F)(F)C(F)(F)F" ; retrieve measured outcome.
Solution: inactive

Exercise: Param item = "O=S(=O)(O)CCC(F)(F)C(F)(F)C(F)(F)C(F)(F)F" ; retrieve measured outcome.
Solution: inactive

Exercise: Param item = COC(F)(C(F)F)C(F)(F)F (configuration not stated) ; retrieve measured outcome.
Solution: inactive

Exercise: Param item = "NCC(F)(F)C(F)(F)C(F)(F)C(F)(F)C(F)(F)C(F)(F)C(F)(F)C(F)(F)F" ; retrieve measured outcome.
Solution: inactive

Exercise: Param item = "O=C(O)C(F)(F)OC(F)(F)C(F)(F)OC(F)(F)C(F)(F)OC(F)(F)F" ; retrieve measured outcome.
Solution: inactive

Exercise: Param item = "C=CC(=O)OCC(F)(F)C(F)(F)C(F)(F)C(F)(F)C(F)(F)C(F)(F)C(F)(F)C(F)F" ; retrieve measured outcome.
Solution: inactive
